molecular target: CCR-3 (Homo sapiens); assay: Eotaxin-induced chemotaxis of CCR-3 transfectant cells (CCR3/U937); type: cell-based; design: expressed in transfected cells; host or cells: U937; details: 10 µM test compound; eotaxin 1 x 10^-9 M; CCR3/U937 cells (Table 3a)
Sequence (P51677 whole entry): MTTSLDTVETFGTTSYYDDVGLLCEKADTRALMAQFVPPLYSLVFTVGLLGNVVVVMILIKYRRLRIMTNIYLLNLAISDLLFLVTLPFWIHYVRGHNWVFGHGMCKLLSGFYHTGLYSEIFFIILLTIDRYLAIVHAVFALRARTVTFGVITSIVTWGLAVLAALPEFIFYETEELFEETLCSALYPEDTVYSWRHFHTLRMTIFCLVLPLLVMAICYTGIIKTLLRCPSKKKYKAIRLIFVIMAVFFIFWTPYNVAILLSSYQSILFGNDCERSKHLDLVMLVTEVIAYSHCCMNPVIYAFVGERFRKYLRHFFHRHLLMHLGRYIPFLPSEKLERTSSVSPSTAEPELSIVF
Reported Chemotaxis Assay 10 µM (inhibition %) values follow for various compounds
Response body: numeric value in %, unit text excluded.

Study these solved cases before continuing.
Notebook: pull reported Chemotaxis Assay 10 µM (inhibition %) for CCR-3 (Homo sapiens), entry CC(=O)OCCCN(CCCNC(=O)Nc1ccc(Br)cc1)C1CCCc2ccccc21 (stereo not shown)
89

How about CCN(CCCCNC(=O)Nc1ccc([N+](=O)[O-])cc1)CCc1ccc(Cl)cc1 ?
99

Same read-out for COC(=O)CCCN(CCCNC(=O)Nc1ccc(F)cc1)C1CCCc2ccccc21 (stereo not shown) ?
100

Consider next the compound O=C(O)CCCN(CCCNC(=O)Nc1cccc(Cl)c1)C1CCCc2ccccc21 (stereo not shown) in the same way.
100

Would you kindly repeat that for CCN(CCCNC(=O)Nc1ccccc1)CCc1ccc(F)cc1 ?
100

Now consider COC(=O)CCCN(CCCNC(=O)Nc1ccccc1Br)C1CCCc2ccccc21 (stereo not shown) and answer again.
94

More entries:
Recall the recorded Chemotaxis Assay 10 µM (inhibition %) for COC(=O)CCCN(CCCNC(=O)Nc1cccc2ccccc12)C1CCCc2ccccc21 (stereo not shown) with CCR-3 (Homo sapiens) and state it.
87
